Provenance of the data: patent US20250026849A1

Entries and their ELISA_avg
target_desc: T1, CD123 (Homo sapiens (Human), UniProt P26951 19-305, limits assumed)
T1 construct: also called CD123-Signal
T1 sequence: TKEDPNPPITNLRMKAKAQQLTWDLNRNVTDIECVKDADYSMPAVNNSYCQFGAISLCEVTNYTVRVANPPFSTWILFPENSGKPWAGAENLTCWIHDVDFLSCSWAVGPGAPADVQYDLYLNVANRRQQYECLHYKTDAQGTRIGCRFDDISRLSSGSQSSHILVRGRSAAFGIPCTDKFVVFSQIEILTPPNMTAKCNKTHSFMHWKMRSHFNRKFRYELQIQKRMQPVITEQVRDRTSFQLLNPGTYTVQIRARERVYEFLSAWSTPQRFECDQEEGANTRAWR
protocol_text: ELISA, format not described
Design: unit not given here
Write the value as a bare number.

Solved entries (count: 6):
D domain SEQ ID NO: 718 (designed binder) MGSWVEFYDRLYAIEVRLLALGGSEAELAAFEKEIAAFESELQAYKGKGNPEVEFLRQEAAEIRDWLQAYRHN	5.8
D domain SEQ ID NO: 743 (designed binder) MGSWFEFEDRLDAIWDRLWALGGSEAELAAFEKEIAAFESELQAYKGKGNPEVEFLRMDAAMIRYILQAYRHN	5.1
D domain SEQ ID NO: 712 (designed binder) MGSWTEFDRRLDAIWDRLFALGGSEAELAAFEKEIAAFESELQAYKGKGNPEVEWLREEAADIRDYLQAYRHN	9.2
D domain SEQ ID NO: 711 (designed binder) MGSWIEFEVRLDAIWDRLFALGGSEAELAAFEKEIAAFESELQAYKGKGNPEVEYLRDEAADIRQSLQAYRHN	4.2
D domain SEQ ID NO: 771 (designed binder) MGSWFEFEIRLEAIEDRLFALGGSEAELAAFEKEIAAFESELQAYKGKGNPEVEFLRDEAAEIRQVLQAYRHN	3
D domain SEQ ID NO: 693 (designed binder) MGSWHEFDDRLDAIMSRLDALGGSEAELATFEAEIATFEFVLQLYKGKGNPEVEALLAEAYAIDWELEAYRHN	7.7

q: Return reported ELISA_avg. Input binder: D domain SEQ ID NO: 671 (designed binder) MGSWWEFEDRLWAIDRRLMALGGSEAELAVFEQMIAHFEQILQVYKGKGNPEVEALHFEAHAIGMELAAYRHN
a: 4.6

q: Return reported ELISA_avg. Input binder: D domain SEQ ID NO: 670 (designed binder) MGSWWEFEDRLWAIEQRLDALGGSEAELAVFENSIAKFEDMLQVYKGKGNPEVEALHEEADAIIWELYAYRHN
a: 4.4

q: Return reported ELISA_avg. Input binder: D domain SEQ ID NO: 756 (designed binder) MGSWYEFEYRLEAIEDRLWALGGSEAELAAFEKEIAAFESELQAYKGKGNPEVEYLREEAAWIRVWLQAYRHN
a: 6.2

q: Return reported ELISA_avg. Input binder: D domain SEQ ID NO: 668 (designed binder) MGSWYEFYWRLEAIEERLWALGGSEAELAEFEKAIATFEDQLQTYKGKGNPEVEALETEALAIHAELEAYRHN
a: 3.7

q: Return reported ELISA_avg. Input binder: D domain SEQ ID NO: 666 (designed binder) MGSWYEFWRRLDAIEERLWALGGSEAELAMFETDIAGFEWMLQLYKGKGNPEVEALEHEAWAINSELDAYRHN
a: 3.6

q: Return reported ELISA_avg. Input binder: D domain SEQ ID NO: 704 (designed binder) MGSWDEFSERLDAIWGRLEALGGSEAELATFEFHIAEFEHELQYYKGKGNPEVEALQGEAAAIINELYAYRHN
a: 3.2
